Below: compounds with Ki recorded for Adenosine receptor A3 (Homo sapiens, UniProt P0DMS8) in separate published works.
ATTRIBUTE MEASURED: Ki (nM)

These recorded examples may help you get a feel for the data.
INSERT INTO measurements (mol, experimental_system, attribute_measured, reported_result) VALUES
  ('O=C(Nc1nc2ccccc2c2cn(-c3ccccc3)nc12)c1ccncc1', 'Adenosine receptor A3 (Homo sapiens, UniProt P0DMS8)', 'Ki', 5),
  ('COc1ccc(N2CCOCC2)c2sc(NC(=O)C(C)(C)Oc3ccc(F)cc3)nc12', 'Adenosine receptor A3 (Homo sapiens, UniProt P0DMS8)', 'Ki', 5000),
  ('CCNC(=O)[C@H]1O[C@@H](n2cnc3c(Nc4ccc(OCC(=O)Nc5ccc(OC)cc5)cc4)nc(Cl)nc32)[C@H](O)[C@@H]1O', 'Adenosine receptor A3 (Homo sapiens, UniProt P0DMS8)', 'Ki', 101);

A: Oc1ccc(-c2nc(N3CCCCC3)c3nc[nH]c3n2)cc1
B: CCn1nnc([C@H]2O[C@@H](n3cnc4c(N)nc(N[C@H](CO)Cc5ccc(Cl)cc5)nc43)[C@H](O)[C@@H]2O)n1
Q. # return whichever of A and B has the smaller Ki # respond with the chosen item's label
A. A
(A: 39.8 nM, B: 288 nM)

###

For reference, the following Ki results for Adenosine receptor A3 (Homo sapiens) were taken from various sources.
ATTRIBUTE MEASURED: Ki (nM)

Use the examples below as a reference point.
INSERT INTO measurements (compound, attribute_measured, reported_result) VALUES
  ('CCOC(=O)[C@@]12C[C@@H]1[C@@H](n1cnc3c(NC)nc(C#Cc4ccc(Br)s4)nc31)[C@H](O)[C@@H]2O', 'Ki', 6.42),
  ('COC[C@H]1O[C@@H](n2cnc3c(Nc4ccc(O)c(F)c4)ncnc32)[C@H](O)[C@@H]1O', 'Ki', 3160);

a: O=[N+]([O-])c1nc(NCc2cccc(I)c2)c2ncn([C@@H]3O[C@H](CO)[C@@H](O)[C@H]3O)c2n1
b: CCn1c(=O)[nH]c2nc(-c3cnn(Cc4cccc(F)c4)c3)[nH]c2c1=O
Q. Between a and b , whose measured Ki reads higher? Write down the label attached to your selection.
A. b
(b: 2120 nM, a: 12 nM)

###

Please find below Ki measurements for Adenosine receptor A3 (Homo sapiens, UniProt P0DMS8), combined from several publications.
ATTRIBUTE MEASURED: Ki (nM)

Here are 3 compounds together with their reported answers.
INSERT INTO results (mol, reported_result) VALUES
  ('Cn1cc2c(nc(NC(=O)Nc3cccc[n+]3[O-])n3nc(-c4ccco4)nc23)n1', 3.5),
  ('Cc1ccc(C(=O)Nc2nc3ccccc3c3cn(-c4ccccc4)nc23)cc1', 11.5),
  ('CCC(CC)C(=O)Nc1cc(-c2ccc3c(c2)OCO3)nc(-c2ccccc2)n1', 634);

P: Cn1cc2c(nc(NC(=O)Cc3ccc(C(F)(F)F)cc3)n3nc(-c4ccco4)nc23)n1
Q: c1ccc(-c2nc(-c3ccccc3)c3nc(C4CCCC4)nc-3[nH]2)cc1
R: CCCCn1c(=O)[nH]c2nc(-c3ccc(C(=O)O)cc3)[nH]c2c1=O
S: O=C(CCc1ccccc1)Nc1nc2ccc(Cl)cc2c2nc(-c3ccco3)nn12
T: Cn1cc2c(nc(NC(=O)Cc3ccc(Cl)cc3)n3nc(-c4ccco4)nc23)n1
Q. Ranking field: Ki; order: falling. Ranked list of labels, please, in the requested order.
A. R, Q, S, T, P

###

Collected literature values of Ki measured for Adenosine receptor A3 (Homo sapiens).
- EXPERIMENTAL SYSTEM: Adenosine receptor A3 (Homo sapiens)
- Sequence (P0DMS8 whole entry): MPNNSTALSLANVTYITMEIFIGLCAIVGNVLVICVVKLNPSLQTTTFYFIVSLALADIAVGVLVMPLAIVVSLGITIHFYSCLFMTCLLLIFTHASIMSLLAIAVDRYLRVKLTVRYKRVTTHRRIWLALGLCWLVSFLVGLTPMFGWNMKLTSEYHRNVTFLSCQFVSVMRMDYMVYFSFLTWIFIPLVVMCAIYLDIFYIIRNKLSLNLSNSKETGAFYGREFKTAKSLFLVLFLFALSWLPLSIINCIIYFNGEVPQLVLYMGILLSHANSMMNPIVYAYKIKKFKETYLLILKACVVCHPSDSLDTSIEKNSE
ATTRIBUTE MEASURED: Ki (nM)

INSERT INTO assay_data (compound, reported_result) VALUES
  ('Cc1ccc(NC(=O)Nc2nc(Oc3ccccc3)nc3nc(-c4ccco4)nn23)cc1', 750),
  ('CCn1nnc([C@H]2O[C@@H](n3cnc4c(N)nc(N[C@H](CO)Cc5ccc(O)cc5)nc43)[C@H](O)[C@@H]2O)n1', 140),
  ('CNC(=O)[C@@]12C[C@@H]1[C@@H](n1cnc3c(/C=C(\O)c4ccccc4)nc(C#Cc4ccccc4)nc31)[C@H](O)[C@@H]2O', 78.5);

1: CCCN(CCC)S(=O)(=O)c1ccc(NC(=O)Nc2ncnc3c2ncn3C2O[C@H](C(=O)NCC)C(O)C2O)cc1 (single isomer, unassigned)
2: CCNC(=O)[C@H]1O[C@@H](n2cnc3c(Nc4ccc(OCC(=O)Nc5ccc6c(c5)OCO6)cc4)ncnc32)[C@H](O)[C@@H]1O
3: CCCOC(=O)c1c(-c2ccccc2)nc(CC)c(C(=O)SCC)c1CCO
Q. Order the records so the highest Ki appears first and the lowest last. A ranking is expressed here by listing the labels in the requested order.
A. 3, 2, 1

###

System: Adenosine receptor A3 (Homo sapiens) | Read-out: Ki | Origin: multiple publications
ATTRIBUTE MEASURED: Ki (µM)

// worked examples, Ki included
INSERT INTO measurements (molecule, experimental_system, reported_result) VALUES
  ('O=c1oc2c(O)cccc2cc1-c1ccsc1', 'Adenosine receptor A3 (Homo sapiens)', 2.87),
  ('COc1ccc(NC(=O)Nc2nc(-c3ccccc3)nc3nn(C)cc23)cc1', 'Adenosine receptor A3 (Homo sapiens)', 0.358);

P: C=CCN1C(=O)N2CC(C)N=C2c2[nH]c(-c3cc(C)nn3C)nc21 (racemic)
Q: CCCn1c(=O)c2[nH]c(-c3cnn(Cc4cc(-c5ccccc5OC)on4)c3)nc2n(CCC)c1=O
Q. When their Ki values are compared, which is larger, P or Q ? Use the label to indicate which entry you chose.
A. Q

###

Target protein (sequence): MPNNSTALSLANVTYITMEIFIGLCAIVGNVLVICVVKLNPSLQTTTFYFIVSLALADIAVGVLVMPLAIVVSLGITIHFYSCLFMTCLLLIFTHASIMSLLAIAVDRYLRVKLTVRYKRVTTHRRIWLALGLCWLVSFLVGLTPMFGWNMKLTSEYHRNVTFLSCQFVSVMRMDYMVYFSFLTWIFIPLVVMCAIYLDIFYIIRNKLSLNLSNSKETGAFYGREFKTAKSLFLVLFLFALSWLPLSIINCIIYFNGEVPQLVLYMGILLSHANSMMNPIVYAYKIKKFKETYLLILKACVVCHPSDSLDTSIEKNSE
Ok so here's the combined literature set: Ki for the protein given by its sequence.

Answered cases to consult:
INSERT INTO results (compound, reported_result) VALUES
  ('C=CCCn1cnc2c(N)ncnc21', '> 100 µM'),
  ('Cn1c(=O)c2c(nc3n2CCN(CCc2ccccc2)C3)n(C)c1=O', '> 10 µM'),
  ('CCOCN1C(C)=C(C(=O)OCC)C(C#Cc2ccccc2)C(C(=O)O)=C1c1ccccc1 (stereo not given)', '> 100 µM'),
  ('COc1cccc(C#CCN2CCn3c(nc4c3c(=O)n(C)c(=O)n4C)C2)c1', '> 10 µM');

Now turn to the next compound.
Noted for "CC(C)(C)c1cc(-c2cn3c(=O)n(-c4ccccc4)nc3c(N)n2)ccc1O" : its Ki reads > 30 µM

###

- EXPERIMENTAL SYSTEM: Adenosine receptor A3 (Homo sapiens)
- Sequence (P0DMS8 whole entry): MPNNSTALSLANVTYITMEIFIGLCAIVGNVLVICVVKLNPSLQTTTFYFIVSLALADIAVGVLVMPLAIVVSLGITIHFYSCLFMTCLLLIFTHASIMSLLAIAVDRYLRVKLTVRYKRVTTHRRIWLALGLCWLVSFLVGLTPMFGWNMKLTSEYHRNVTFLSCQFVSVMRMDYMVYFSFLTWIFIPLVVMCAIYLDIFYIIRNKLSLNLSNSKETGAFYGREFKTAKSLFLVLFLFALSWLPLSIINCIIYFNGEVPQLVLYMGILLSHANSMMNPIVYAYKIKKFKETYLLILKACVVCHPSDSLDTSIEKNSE
Literature roundup of Adenosine receptor A3 (Homo sapiens) data, read-out Ki.

Worked examples, 3 compounds total:
INSERT INTO assay_data (mol, reported_result) VALUES
  ('Cn1c(=O)c2c(nc3[nH]c(-c4ccccc4)cn32)n(C)c1=O', '> 1 µM'),
  ('CCNC(=O)[C@H]1O[C@@H](n2cnc3c(NNC(=O)c4ccc[nH]4)nc(Cl)nc32)[C@H](O)[C@@H]1O', '> 5 µM'),
  ('Cn1cnc2ncnc(N)c21', '> 100 µM');

--- query ---
Ki reported for this compound "CCCn1cnc2ncnc(N)c21" : > 100 µM
